Tested on: HaCaT
Experiment Description: Cytotoxicity in human HaCaT cells assessed as reduction in cell viability at 50 uM after 24 hrs by resazurin dye-based fluorescence assay relative to control
Measured Parameter: Activity

c1csc(CNc2ncnc3c2ncn3C2CCCO2)c1 (stereo not given): < 10%
Clc1nc(NCc2ccco2)c2ncn(C3CCCO3)c2n1 (stereo not given): < 10%
Clc1nc(NCC2CCCO2)c2ncn(C3CCCO3)c2n1 (stereo not given): < 10%
OCc1ccc(CNc2ncnc3c2ncn3C2CCCO2)o1 (stereo not given): < 10%

Incoming: # input molecule: c1nc(NCC2CCCO2)c2nc[nH]c2n1 (stereo not given) ; wanted: its Activity
Outgoing: < 10%

###

Provide the recorded viability at 24 h, 3.9 µM for the entries that follow.
Experiment Description: Phototoxicity in human HaCaT cells assessed as cell viability at 3.9 uM preincubated for 60 mins followed by 7.5 J/cm2 UVA irradiation and measured after 24 hrs by neutral red uptake assay relative to control
Assay type: cell-based
Study Conditions: read-out: Activity
Numbers only, in %.

Recorded viability at 24 h, 3.9 µM, per entry:
c1nc(NCC2CCCO2)c2nc[nH]c2n1 (stereo not given): 101
Clc1nc(NCC2CCCO2)c2ncn(C3CCCO3)c2n1 (stereo not given): 105
OCc1ccc(CNc2ncnc3c2ncn3C2CCCO2)o1 (stereo not given): 104
Clc1nc(NCc2ccco2)c2ncn(C3CCCO3)c2n1 (stereo not given): 116

Field: next compound
Incoming: # input compound: c1csc(CNc2ncnc3c2ncn3C2CCCO2)c1 (stereo not given) ; wanted: its viability at 24 h, 3.9 µM
Outgoing: 123

###

Experiment Description: Phototoxicity in human HaCaT cells assessed as cell viability at 62.5 uM preincubated for 60 mins followed by 7.5 J/cm2 UVA irradiation and measured after 24 hrs by neutral red uptake assay relative to control
Type: cell-based
Study Conditions: read-out: Activity
Provide the recorded viability at 24 h, 62.5 µM for the entries that follow.
Numbers only, in %.

c1csc(CNc2ncnc3c2ncn3C2CCCO2)c1 (stereo not given): 130
Clc1nc(NCc2ccco2)c2ncn(C3CCCO3)c2n1 (stereo not given): 116
c1nc(NCC2CCCO2)c2nc[nH]c2n1 (stereo not given): 118
OCc1ccc(CNc2ncnc3c2ncn3C2CCCO2)o1 (stereo not given): 121

Field: next compound
Incoming: # input compound: Clc1nc(NCC2CCCO2)c2ncn(C3CCCO3)c2n1 (stereo not given) ; wanted: its viability at 24 h, 62.5 µM
Outgoing: 126

###

Experiment Description: Stability of the compound in pH 7 solution at 10^-4 M after 24 hrs by HPLC analysis
Assay type: physicochemical
Study Conditions: read-out: Stability
Measured Parameter: remaining at 24 h, 100 µM (%)
One number for each entry, in %.

Incoming: # input compound: c1nc(NCC2CCCO2)c2ncn(C3CCCO3)c2n1 (stereo unspecified) ; wanted: its remaining at 24 h, 100 µM
Outgoing: 100

###

Experiment Description: Cytotoxicity in human NHDF cells assessed as cell viability at 31.3 uM after 24 hrs by neutral red uptake assay relative to control
Format: cell-based
Study Conditions: read-out: Activity
Measured Parameter: viability at 24 h, 31.3 µM (%)
Give bare numbers, in %.

Recorded viability at 24 h, 31.3 µM, per entry:
Clc1nc(NCc2ccco2)c2ncn(C3CCCO3)c2n1 (stereo not given): 105
OCc1ccc(CNc2ncnc3c2ncn3C2CCCO2)o1 (stereo not given): 108
c1nc(NCC2CCCO2)c2nc[nH]c2n1 (stereo not given): 102
Clc1nc(NCC2CCCO2)c2ncn(C3CCCO3)c2n1 (stereo not given): 106

Field: next compound
Incoming: # input compound: c1csc(CNc2ncnc3c2ncn3C2CCCO2)c1 (stereo not given) ; wanted: its viability at 24 h, 31.3 µM
Outgoing: 107

###

Experiment Description: Cytotoxicity in human NHDF cells assessed as cell viability at 3.9 uM after 24 hrs by neutral red uptake assay relative to control
Type: cell-based
Study Conditions: read-out: Activity
Measured Parameter: viability at 24 h, 3.9 µM
Put your answer as a value accompanied by its unit after it.

c1nc(NCC2CCCO2)c2nc[nH]c2n1 (stereo not given): 102%
OCc1ccc(CNc2ncnc3c2ncn3C2CCCO2)o1 (stereo not given): 103%
Clc1nc(NCC2CCCO2)c2ncn(C3CCCO3)c2n1 (stereo not given): 103%
Clc1nc(NCc2ccco2)c2ncn(C3CCCO3)c2n1 (stereo not given): 100%

Field: next molecule
Incoming: # input molecule: c1csc(CNc2ncnc3c2ncn3C2CCCO2)c1 (stereo not given) ; wanted: its viability at 24 h, 3.9 µM
Outgoing: 100%

###

Experiment Description: Cytotoxicity in human HaCaT cells assessed as cell viability at 62.5 uM after 24 hrs by neutral red uptake assay relative to control
Format: cell-based
Study Conditions: read-out: Activity
Measured Parameter: viability at 24 h, 62.5 µM (%)
Answers are plain numbers, in %.

OCc1ccc(CNc2ncnc3c2ncn3C2CCCO2)o1 (centres undefined): 106
Clc1nc(NCc2ccco2)c2ncn(C3CCCO3)c2n1 (centres undefined): 110
Clc1nc(NCC2CCCO2)c2ncn(C3CCCO3)c2n1 (centres undefined): 111

Field: next molecule
Incoming: # input molecule: c1csc(CNc2ncnc3c2ncn3C2CCCO2)c1 (centres undefined) ; wanted: its viability at 24 h, 62.5 µM
Outgoing: 104

###

Provide the recorded viability at 24 h, 125 µM for the entries that follow.
Experiment Description: Cytotoxicity in human HaCaT cells assessed as cell viability at 125 uM after 24 hrs by neutral red uptake assay relative to control
Format: cell-based
Study Conditions: read-out: Activity
Give bare numbers, in %.

Recorded viability at 24 h, 125 µM, per entry:
OCc1ccc(CNc2ncnc3c2ncn3C2CCCO2)o1 (stereo not given): 110
c1csc(CNc2ncnc3c2ncn3C2CCCO2)c1 (stereo not given): 103
c1nc(NCC2CCCO2)c2nc[nH]c2n1 (stereo not given): 102

Quick one: give me viability at 24 h, 125 µM for each item below, same order please.
1. Clc1nc(NCc2ccco2)c2ncn(C3CCCO3)c2n1 (stereo not given)
2. Clc1nc(NCC2CCCO2)c2ncn(C3CCCO3)c2n1 (stereo not given)

Outgoing:
[105, 111]

###

Experiment Description: Phototoxicity in human NHDF cells assessed as cell viability at 7.8 uM preincubated for 60 mins followed by 5 J/cm2 UVA irradiation and measured after 24 hrs by neutral red uptake assay relative to control
Type: cell-based
Study Conditions: read-out: Activity
Provide the recorded viability at 24 h, 7.8 µM for the entries that follow.

Quick one: give me viability at 24 h, 7.8 µM for each item below, same order please.
1. c1csc(CNc2ncnc3c2ncn3C2CCCO2)c1 (stereo not given)
2. Clc1nc(NCc2ccco2)c2ncn(C3CCCO3)c2n1 (stereo not given)
3. Clc1nc(NCC2CCCO2)c2ncn(C3CCCO3)c2n1 (stereo not given)
4. c1nc(NCC2CCCO2)c2nc[nH]c2n1 (stereo not given)

Outgoing:
["102%", "102%", "103%", "101%"]

Incoming: # input compound: OCc1ccc(CNc2ncnc3c2ncn3C2CCCO2)o1 (stereo not given) ; wanted: its viability at 24 h, 7.8 µM
Outgoing: 107%

###

Provide the recorded viability at 24 h, 7.8 µM for the entries that follow.
Experiment Description: Phototoxicity in human HaCaT cells assessed as cell viability at 7.8 uM preincubated for 60 mins followed by 7.5 J/cm2 UVA irradiation and measured after 24 hrs by neutral red uptake assay relative to control
Assay type: cell-based
Study Conditions: read-out: Activity
Give bare numbers, in %.

Recorded viability at 24 h, 7.8 µM, per entry:
Clc1nc(NCc2ccco2)c2ncn(C3CCCO3)c2n1 (stereo not given): 120
c1csc(CNc2ncnc3c2ncn3C2CCCO2)c1 (stereo not given): 124
OCc1ccc(CNc2ncnc3c2ncn3C2CCCO2)o1 (stereo not given): 111
Clc1nc(NCC2CCCO2)c2ncn(C3CCCO3)c2n1 (stereo not given): 112

Incoming: # input molecule: c1nc(NCC2CCCO2)c2nc[nH]c2n1 (stereo not given) ; wanted: its viability at 24 h, 7.8 µM
Outgoing: 103

###

Experiment Description: Cytotoxicity in human NHDF cells assessed as cell viability at 62.5 uM after 24 hrs by neutral red uptake assay relative to control
Type: cell-based
Study Conditions: read-out: Activity
Provide the recorded viability at 24 h, 62.5 µM for the entries that follow.
Answers are plain numbers, in %.

Recorded viability at 24 h, 62.5 µM, per entry:
c1csc(CNc2ncnc3c2ncn3C2CCCO2)c1 (stereo not given): 108
Clc1nc(NCc2ccco2)c2ncn(C3CCCO3)c2n1 (stereo not given): 106
Clc1nc(NCC2CCCO2)c2ncn(C3CCCO3)c2n1 (stereo not given): 102
OCc1ccc(CNc2ncnc3c2ncn3C2CCCO2)o1 (stereo not given): 107

Field: next molecule
Incoming: # input molecule: c1nc(NCC2CCCO2)c2nc[nH]c2n1 (stereo not given) ; wanted: its viability at 24 h, 62.5 µM
Outgoing: 102

Origin of the recorded values: ChEMBL document CHEMBL4229381
